Test: protein stability index of a GFP-peptide fusion (GPS, HEK-293T) (PSI 1-6); higher = more stable;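 also: 24-mer peptide tiles fused after GFP, lentivirally expressed, FACS-sorted into six equal bins by GFP/DsRed ratio, decoded by Illumina sequencing, PSI is the read-weighted mean bin number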
Conditions: treatment: MLN4924 1 uM, 8 h; c terminus: a fixed tail appended
Rule: true for protein stability index not less than 3, false for anything less.

[[record]]
query_sequence = "FAIPVGSGLGYIAGSKVKDMAGDW [SPNS1]"
category_label = "false"

[[record]]
query_sequence = "LYRDVMLETFGHLLSIGPELPKPE [ZNF8]"
category_label = "false"

[[record]]
query_sequence = "KKAWDDLKKYLEPRCPRMVLSLKE [FBXO3]"
category_label = "false"

[[record]]
query_sequence = "EEEKEPLAVDSWWLDPGHTAVAQA [SERTAD1]"
category_label = "true"

[[record]]
query_sequence = "NSLEMTPAVRQRVIEEAKTAFLLN [HMOX1]"
category_label = "true"

[[record]]
query_sequence = "GAQFEGEKGRALQIRDWRGGRLEN [ZSWIM9]"
category_label = "true"

[[record]]
query_sequence = "KLKPLGEAEREFILNLKKKECKDR [NLN]"
category_label = "true"

[[record]]
query_sequence = "ELERFVNLHSLALDFCDFTAEMAR [FBXO33]"
category_label = "false"

[[record]]
query_sequence = "SGNFERCIRLWKYALDMQQSNLEP [FEM1A]"
category_label = "false"

[[record]]
query_sequence = "GRTPLIKLSPKKTWEGFIGGFFAT [CDS2]"
category_label = "false"

[[record]]
query_sequence = "AMTGTFPAYGMSPSLSTITSTSSS [DVL3]"
category_label = "true"

[[record]]
query_sequence = "EIALAPYQHLEEDMKSLKQVLEMK [MTUS2]"
category_label = "true"

[[record]]
query_sequence = "VQLHNGTKYKKFPHWLDKWMLTRK [STEAP1]"
category_label = "false"

[[record]]
query_sequence = "DGTAENGIHPLSSSEVDELIHKAD [PALM]"
category_label = "true"

[[record]]
query_sequence = "QQAVEQIAKAEETHSSLSQELQAR [CCDC89]"
category_label = "true"

[[record]]
query_sequence = "LLKSHTNVLSVNLPDNFTLKEDGM [TPH1]"
category_label = "true"

[[record]]
query_sequence = "FGRLVANVLKSYIGLGHIYSGTFA [CLCN6]"
category_label = "false"

[[record]]
query_sequence = "KELILDKVYTHPKWNTQTKARSYS [ZC2HC1C]"
category_label = "true"

[[record]]
query_sequence = "LRVRELQRKVDGIQKAYDELRLQS [CCDC89]"
category_label = "true"

[[record]]
query_sequence = "TKSPCESNNKKNDEMQEVPNRVLA [SPANXN3]"
category_label = "true"

[[record]]
query_sequence = "YVATEAILIALVGATPSYHWDLAE [SLC22A15]"
category_label = "true"

[[record]]
query_sequence = "ILQSPAFCEELESMIQEQFKKGKN [ADD1]"
category_label = "true"

[[record]]
query_sequence = "KHLTDTSHGVRNKCLQLLGNLGSL [INTS4]"
category_label = "false"

[[record]]
query_sequence = "LLHNDEYQETMVESTFMYLTLDLP [USP39]"
category_label = "false"

[[record]]
query_sequence = "EQGFQEGVPNASVIMQVPERIVVA [MFF]"
category_label = "true"

[[record]]
query_sequence = "GTGRSAKEQVLRKGTENLQRAQAE [FCHSD1]"
category_label = "true"

[[record]]
query_sequence = "RTTRGLDPLFGMCEKFLQEVDFFQ [INTS4]"
category_label = "false"

[[record]]
query_sequence = "GGSSAVGQFVSLDGAGKTPTLGGG [BRF1]"
category_label = "true"

[[record]]
query_sequence = "ELVENIKSVLKSDEEHMEEAITSA [FAM189A2]"
category_label = "true"

[[record]]
query_sequence = "LTTKDYMEMYNVIMTVKEDQFSAL [SLC6A17]"
category_label = "false"

